For each entry below, report its melting point value.

Dear colleague, I am looking for the recorded melting point of the following molecule: Br.CN(C(=O)c1ccc(C(F)(F)F)cc1)c1ccc(Oc2ccc3c(c2)cc(C(=O)N2CCN(Cc4ccc(C(F)(F)F)cc4)CC2)n3C)nc1
254 to 260 °C (dec.)

Next: CCOc1cccc(CN2CCN(C(=O)c3cc4cc(Oc5ccc(N(C)C(=O)c6ccc(Cl)c(Cl)c6)cn5)ccc4n3C)CC2)c1.O=C(O)/C=C\C(=O)O
99 to 100 °C

Next: Br.CN(C(=O)c1ccc(Cl)c(Cl)c1)c1ccc(Oc2ccc3cc(C(=O)N4CCN(Cc5ccc6c(c5)OC(F)(F)O6)CC4)n(C)c3c2)nc1
225.4 to 227.1 °C

* * *

Parameter: melting point

Dear colleague, I am looking for the recorded melting point of the following compound: CC(C)CN1CCN(C(=O)c2cc3ccc(Oc4ccc(NC(=O)c5ccc(C(F)(F)F)cc5)cn4)cc3n2C)CC1.Cl
270.2 to 272.2 °C

Next: Br.CN(C(=O)c1ccc(Cl)c(Cl)c1)c1ccc(Oc2ccc3cc(C(=O)N4CCN(Cc5ccc(OC(F)F)cc5)CC4)n(C)c3c2)nc1
185.6 to 189.3 °C

Next: Br.CCCOc1ccc(CN2CCN(C(=O)c3cc4ccc(Oc5ccc(N(C)C(=O)c6ccc(OC(F)(F)F)cc6)cn5)cc4n3C)CC2)cc1
240 to 242 °C

* * *

Parameter: melting point

Dear colleague, I am looking for the recorded melting point of the following molecule: Br.Br.CN(C(=O)c1ccc(C(F)(F)F)cc1)c1ccc(Oc2ccc3c(c2)cc(C(=O)N2CCN(Cc4ccc(OCC(F)(F)F)cc4)CC2)n3C)nc1 [Example 432]
211 to 212 °C

Next: CS(=O)(=O)O.CS(=O)(=O)O.Cc1c(Oc2ccc(NC(=O)c3ccc(C(F)(F)F)cc3)cn2)ccc2c1cc(C(=O)N1CCN(Cc3ccccn3)CC1)n2C [Example 234]
149 to 150 °C

Next: COc1ccc(CN2CCN(C(=O)c3cc4cc(Oc5ccc(N(C)C(=O)c6ccc(C(F)(F)F)cc6)cn5)ccc4n3C)CC2)nc1.O=C(O)/C=C\C(=O)O [Example 387]
143 to 144 °C

Next: Br.CCOc1ccc(CN2CCN(C(=O)c3cc4cc(Oc5ccc(NC(=O)c6ccc(C(F)(F)F)cc6)cn5)ccc4n3C)CC2)cc1OCC [Example 340]
196 to 198 °C

Next: Br.CC(C)Oc1ccc(CN2CCN(C(=O)c3cc4ccc(Oc5ccc(NC(=O)c6ccc(Cl)c(Cl)c6)cn5)cc4n3C)CC2)cc1 [Example 255]
239.7 to 243.5 °C

Next: CCOc1ccc(CN2CCN(C(=O)c3cc4cc(Oc5ccc(N(C)C(=O)c6ccc(C(F)(F)F)cc6)cn5)ccc4n3C)CC2)cc1.O=C(O)/C=C\C(=O)O [Example 342]
131 to 135 °C

Next: Br.CN(C(=O)c1ccc(OC(F)F)cc1)c1ccc(Oc2ccc3cc(C(=O)N4CCN(Cc5ccc(OC(F)F)cc5)CC4)n(C)c3c2)nc1 [Example 282]
198.7 to 200.5 °C

Next: COc1ccc(CN2CCN(C(=O)c3cc4cc(Oc5ncc(N(C)C(=O)c6ccc(C(F)(F)F)cc6)cn5)ccc4n3C)CC2)cc1.O=C(O)/C=C\C(=O)O [Example 381]
160 to 161 °C

Next: Br.Cn1c(C(=O)N2CCN(Cc3ccc(OCC(F)(F)F)cc3)CC2)cc2ccc(Oc3ccc(NS(C)(=O)=O)cn3)cc21 [Example 76]
237.8 to 240.1 °C

Next: Br.CN(C(=O)c1ccc(C(F)(F)F)cc1Cl)c1ccc(Oc2ccc3cc(C(=O)N4CCN(Cc5ccc(OCC(F)F)cc5)CC4)n(C)c3c2)nc1 [Example 448]
232.4 to 232.8 °C

Next: Br.Cc1cc(CN2CCN(C(=O)c3cc4cc(Oc5ccc(NC(=O)c6ccc(C(F)(F)F)cc6)cn5)ccc4n3C)CC2)no1 [Example 569]
220 to 223 °C

Next: Br.CC(C)Cc1ccc(CN2CCN(C(=O)c3cc4ccc(Oc5ccc(N(C)C(=O)c6ccc(C(F)(F)F)cc6)cn5)cc4n3C)CC2)cc1 [Example 430]
262 to 265 °C

Next: COc1ccc(S(=O)(=O)N(C)c2ccc(Oc3ccc4cc(C(=O)N5CCN(Cc6ccc(OCC(F)(F)F)cc6)CC5)n(C)c4c3)nc2)cc1.Cl [Example 73]
213.4 to 214.1 °C

Next: CN(c1ccc(Oc2ccc3c(c2)cc(C(=O)N2CCN(Cc4ccc(OCC(F)(F)F)cc4)CC2)n3C)nc1)S(=O)(=O)c1ccc(C(F)(F)F)cc1 [Example 527]
191.8 to 194.4 °C

Next: Br.Cn1c(C(=O)N2CCN(Cc3ccc(OCC(F)F)cc3)CC2)cc2ccc(Oc3ccc(NC(=O)c4ccc(Cl)c(Cl)c4)cn3)cc21 [Example 268]
221.5 to 222.3 °C

Next: Br.CN(C(=O)c1ccc(C(F)(F)F)cc1)c1ccc(Oc2ccc3cc(C(=O)N4CCN(Cc5ccc(OCCF)cc5)CC4)n(C)c3c2)nc1 [Example 438]
215.3 to 216.6 °C

Next: Cn1c(C(=O)N2CCN(Cc3ccccn3)CC2)cc2ccc(Oc3ccc(NC(=O)c4ccc(C(F)(F)F)cc4)cn3)cc21.O=C(O)C(=O)O.O=C(O)C(=O)O [Example 236]
176 to 178 °C

Next: Cn1c(C(=O)N2CCN(Cc3ccc(C#N)cc3)CC2)cc2cc(Oc3ccc(NC(=O)c4ccc(C(F)(F)F)cc4)cn3)ccc21.O=C(O)/C=C\C(=O)O [Example 552]
149 to 152 °C

Next: COc1ccc(CNC2CCN(C(=O)c3cc4cc(Oc5ccc(NC(=O)c6ccc(C(F)(F)F)cc6)cn5)ccc4n3C)CC2)cc1 [Example 233]
139 to 142 °C

Next: Br.Cn1c(C(=O)N2CCN(Cc3ccc(OC(F)F)cc3)CC2)cc2ccc(Oc3ccc(NC(=O)c4ccc(C(F)(F)F)cc4)cn3)cc21 [Example 477]
265.6 to 268.3 °C

Next: Br.CCCOc1ccc(CN2CCN(C(=O)c3cc4c(C)c(Oc5ccc(N(C)C(=O)c6ccc(C(F)(F)F)cc6)cn5)ccc4n3C)CC2)cc1 [Example 434]
204 to 208 °C

Next: CCOc1ccc(CN2CCN(C(=O)c3cc4cc(Oc5ccc(N(C)C(=O)c6ccc(C(F)(F)F)cc6)cn5)ccc4n3C)CC2)nc1.O=C(O)/C=C\C(=O)O [Example 417]
129 to 130 °C

Next: Br.CN(c1ccc(C(F)(F)F)cc1)c1ccc(Oc2ccc3c(c2)cc(C(=O)N2CCN(Cc4ccncc4)CC2)n3C)nc1 [Example 337]
167 to 174 °C
